Data provenance is patent US5783575A.

target: mGluR1a (Rattus norvegicus); test: Inhibition of PI-hydrolysis in BHK 570 cells expressing mGluR1a receptors (antagonist activity vs 10 μM glutamate)
pIC50: −log10 of the molar value.
Criterion: pIC50 meeting or surpassing 5. Met: criterion met. Not met: criterion not met.

CCOC(=O)C(C#N)=Cc1c(Cl)n(Cc2ccccc2)c2ccccc12
criterion met
CN1CCN(C(=O)c2cc3c4ccccc4n(C)c3s2)CC1
criterion not met
O=C(O)c1cc2c3ccccc3n(Cc3ccccc3)c2s1
criterion not met
Cn1c2ccccc2c2cc(C(=O)N3CCOCC3)sc21
criterion met

----------
biological target: AMPA; assay: Affinity for AMPA receptor (Table 3); format: binding
Result Type: IC50

O=C(O)c1cc2c3ccccc3n(Cc3ccccc3)c2s1
> 980 µM

----------
biological target: CPP; experiment: Affinity for CPP receptor (Table 3); assay type: binding
Result Type: IC50 (µM)

O=C(O)c1cc2c3ccccc3n(Cc3ccccc3)c2s1
300

----------
target: mGluR1a (Rattus norvegicus, UniProt P23385); assay: Inhibition of PI-hydrolysis in BHK 570 cells expressing mGluR1a receptors (antagonist activity vs 10 μM glutamate)
Sequence (P23385 19-1199): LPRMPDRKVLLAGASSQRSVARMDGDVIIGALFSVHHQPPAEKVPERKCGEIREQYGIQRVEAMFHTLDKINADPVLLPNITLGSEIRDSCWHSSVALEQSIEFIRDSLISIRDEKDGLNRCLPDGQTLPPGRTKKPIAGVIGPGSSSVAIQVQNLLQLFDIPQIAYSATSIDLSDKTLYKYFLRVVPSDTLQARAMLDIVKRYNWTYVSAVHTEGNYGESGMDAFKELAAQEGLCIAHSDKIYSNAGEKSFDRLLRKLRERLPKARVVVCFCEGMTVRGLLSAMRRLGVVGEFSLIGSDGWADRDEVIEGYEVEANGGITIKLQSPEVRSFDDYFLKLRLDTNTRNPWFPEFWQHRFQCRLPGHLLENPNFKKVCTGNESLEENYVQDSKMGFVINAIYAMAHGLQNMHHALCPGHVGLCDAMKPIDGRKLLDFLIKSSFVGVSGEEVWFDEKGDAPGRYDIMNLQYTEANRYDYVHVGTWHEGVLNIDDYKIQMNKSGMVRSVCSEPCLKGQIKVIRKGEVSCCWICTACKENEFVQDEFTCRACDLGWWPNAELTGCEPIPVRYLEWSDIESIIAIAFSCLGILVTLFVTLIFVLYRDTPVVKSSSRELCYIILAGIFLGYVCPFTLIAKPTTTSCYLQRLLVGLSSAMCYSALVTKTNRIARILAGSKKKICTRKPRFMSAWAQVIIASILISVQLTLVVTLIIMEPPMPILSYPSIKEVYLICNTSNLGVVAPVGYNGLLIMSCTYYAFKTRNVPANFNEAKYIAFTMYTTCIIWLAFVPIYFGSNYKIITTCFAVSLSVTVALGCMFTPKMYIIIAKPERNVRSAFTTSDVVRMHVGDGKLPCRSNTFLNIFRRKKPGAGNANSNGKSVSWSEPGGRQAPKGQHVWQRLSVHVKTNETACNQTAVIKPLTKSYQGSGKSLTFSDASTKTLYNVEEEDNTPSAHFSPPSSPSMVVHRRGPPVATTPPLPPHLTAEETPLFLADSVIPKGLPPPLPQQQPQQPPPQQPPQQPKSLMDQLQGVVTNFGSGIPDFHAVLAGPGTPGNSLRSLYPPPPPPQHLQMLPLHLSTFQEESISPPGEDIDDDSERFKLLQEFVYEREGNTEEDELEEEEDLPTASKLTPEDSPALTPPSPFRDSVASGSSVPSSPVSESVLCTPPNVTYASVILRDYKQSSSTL
pIC50: −log10 of the molar value.
Listed next: entries and their corresponding pIC50.
Result Type: pIC50

O=C(O)c1cc2c3ccccc3n(Cc3ccccc3)c2nc1N1CCOCC1
5.00
c1ccc(Cn2c3ccccc3c3cc(-c4nnn[nH]4)sc32)cc1
5.05
Cn1c2ccc(Cl)cc2c2cc(C(=O)O)sc21
5.14
